Data provenance: PubChem BioAssay AID1963442

Provide the recorded viability, T/C for the entries that follow.
tested on: MPNST complex spheroid with HUVEC/MSC, growth, % test/control; experiment: Anticancer human tumor MPNST cell line growth inhibition [Asc]; conditions: second compound 0.316 µM; first compound 0.00316 µM; stronger effect = lower value;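 further: compounds left on spheroids for seven days before reading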
# unit: % | format: bare number

The recorded viability, T/C for entry CNC(C)C(=O)NC1CN(S(=O)(=O)c2cccc(S(=O)(=O)N3CCC4CCC(C(=O)NC(c5ccccc5)c5ccccc5)N4C(=O)C(NC(=O)C(C)NC)C3)c2)CCC2CCC(C(=O)NC(c3ccccc3)c3ccccc3)N2C1=O (stereo not drawn) + Cc1c(S(C)(=O)=O)c(-c2cc(F)cc(N3CCN(c4ccc(NS(=O)(=O)c5ccc(NC(CCN6CCC(C(=O)OCCCP(=O)(O)O)CC6)CSc6ccccc6)c(S(=O)(=O)C(F)(F)F)c5)cc4)CC3)c2)c(-c2ccc(Cl)cc2)n1C(C)C equals 139

Value of viability, T/C reported for the compound Cn1ncnc1[C@H]1c2n[nH]c(=O)c3cc(F)cc(c23)N[C@@H]1c1ccc(F)cc1 + CNC(C)C(=O)NC1CN(S(=O)(=O)c2cccc(S(=O)(=O)N3CCC4CCC(C(=O)NC(c5ccccc5)c5ccccc5)N4C(=O)C(NC(=O)C(C)NC)C3)c2)CCC2CCC(C(=O)NC(c3ccccc3)c3ccccc3)N2C1=O is 88.4

viability, T/C measured on O=C(c1ccc(F)c(F)c1Nc1ccc(I)cc1F)N1CC(O)([C@@H]2CCCCN2)C1 + CNC(C)C(=O)NC1CN(S(=O)(=O)c2cccc(S(=O)(=O)N3CCC4CCC(C(=O)NC(c5ccccc5)c5ccccc5)N4C(=O)C(NC(=O)C(C)NC)C3)c2)CCC2CCC(C(=O)NC(c3ccccc3)c3ccccc3)N2C1=O = 69.7

response.value for NC1CCC(NC2CC2c2ccccc2)CC1 (stereo not drawn) + Cc1c(S(C)(=O)=O)c(-c2cc(F)cc(N3CCN(c4ccc(NS(=O)(=O)c5ccc(NC(CCN6CCC(C(=O)OCCCP(=O)(O)O)CC6)CSc6ccccc6)c(S(=O)(=O)C(F)(F)F)c5)cc4)CC3)c2)c(-c2ccc(Cl)cc2)n1C(C)C (field: viability, T/C) = 87.1

GET /value?item= COc1c(OCCCN2CCOCC2)ccc2c3n(c(=NC(=O)c4cnc(N)nc4)nc12)CCN3 + Cc1c(S(C)(=O)=O)c(-c2cc(F)cc(N3CCN(c4ccc(NS(=O)(=O)c5ccc(NC(CCN6CCC(C(=O)OCCCP(=O)(O)O)CC6)CSc6ccccc6)c(S(=O)(=O)C(F)(F)F)c5)cc4)CC3)c2)c(-c2ccc(Cl)cc2)n1C(C)C &field=viability, T/C returns 72.6

Consider COc1c(OCCCN2CCOCC2)ccc2c3n(c(=NC(=O)c4cnc(N)nc4)nc12)CCN3 + CNC(C)C(=O)NC1CN(S(=O)(=O)c2cccc(S(=O)(=O)N3CCC4CCC(C(=O)NC(c5ccccc5)c5ccccc5)N4C(=O)C(NC(=O)C(C)NC)C3)c2)CCC2CCC(C(=O)NC(c3ccccc3)c3ccccc3)N2C1=O . Its measured viability, T/C is 78.7

So for CCN1CCN(Cc2ccc(Nc3ncc(F)c(-c4cc(F)c5nc(C)n(C(C)C)c5c4)n3)nc2)CC1 + CNC(C)C(=O)NC1CN(S(=O)(=O)c2cccc(S(=O)(=O)N3CCC4CCC(C(=O)NC(c5ccccc5)c5ccccc5)N4C(=O)C(NC(=O)C(C)NC)C3)c2)CCC2CCC(C(=O)NC(c3ccccc3)c3ccccc3)N2C1=O , the logged viability, T/C turned out to be 86.5

Entry CCN1CCN(Cc2ccc(Nc3ncc(F)c(-c4cc(F)c5nc(C)n(C(C)C)c5c4)n3)nc2)CC1 + Cc1c(S(C)(=O)=O)c(-c2cc(F)cc(N3CCN(c4ccc(NS(=O)(=O)c5ccc(NC(CCN6CCC(C(=O)OCCCP(=O)(O)O)CC6)CSc6ccccc6)c(S(=O)(=O)C(F)(F)F)c5)cc4)CC3)c2)c(-c2ccc(Cl)cc2)n1C(C)C , viability, T/C reported as 82.8

---

test system: MPNST complex spheroid with HUVEC/MSC, growth, % test/control; test: Anticancer human tumor MPNST cell line growth inhibition [Asc]; settings: curve of first compound; second compound 0.00316 µM;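 further: compounds left on spheroids for seven days before reading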
measurement-kind: IC50

IC50 reported for this compound Cn1ncnc1[C@H]1c2n[nH]c(=O)c3cc(F)cc(c23)N[C@@H]1c1ccc(F)cc1 + CNC(C)C(=O)NC1CN(S(=O)(=O)c2cccc(S(=O)(=O)N3CCC4CCC(C(=O)NC(c5ccccc5)c5ccccc5)N4C(=O)C(NC(=O)C(C)NC)C3)c2)CCC2CCC(C(=O)NC(c3ccccc3)c3ccccc3)N2C1=O : < 0.000316 µM

IC50 reported for this compound CCN1C(C(=O)NC23CCC(C(=O)O)(CC2)CC3)C(c2cccc(Cl)c2F)C2(C(=O)Nc3cc(Cl)ccc32)C12CCCCC2 (centres undefined) + CNC(C)C(=O)NC1CN(S(=O)(=O)c2cccc(S(=O)(=O)N3CCC4CCC(C(=O)NC(c5ccccc5)c5ccccc5)N4C(=O)C(NC(=O)C(C)NC)C3)c2)CCC2CCC(C(=O)NC(c3ccccc3)c3ccccc3)N2C1=O : > 3 µM

The compound identified as CCN1CCN(Cc2ccc(Nc3ncc(F)c(-c4cc(F)c5nc(C)n(C(C)C)c5c4)n3)nc2)CC1 + CNC(C)C(=O)NC1CN(S(=O)(=O)c2cccc(S(=O)(=O)N3CCC4CCC(C(=O)NC(c5ccccc5)c5ccccc5)N4C(=O)C(NC(=O)C(C)NC)C3)c2)CCC2CCC(C(=O)NC(c3ccccc3)c3ccccc3)N2C1=O registered its IC50 at > 1 µM

Entry O=C(c1cc(Cc2n[nH]c(=O)c3ccccc23)ccc1F)N1CCN(C(=O)C2CC2)CC1 + CNC(C)C(=O)NC1CN(S(=O)(=O)c2cccc(S(=O)(=O)N3CCC4CCC(C(=O)NC(c5ccccc5)c5ccccc5)N4C(=O)C(NC(=O)C(C)NC)C3)c2)CCC2CCC(C(=O)NC(c3ccccc3)c3ccccc3)N2C1=O ; IC50 = < 0.0316 µM
